Target or test system: T1, huCD300F constitutively expressed on 293 Freestyle (Freestyle HEK) cells (human, UniProt Q8TDQ1 20-290)
T1 construct: also called huCD300LF; Human CD300F
T1 sequence: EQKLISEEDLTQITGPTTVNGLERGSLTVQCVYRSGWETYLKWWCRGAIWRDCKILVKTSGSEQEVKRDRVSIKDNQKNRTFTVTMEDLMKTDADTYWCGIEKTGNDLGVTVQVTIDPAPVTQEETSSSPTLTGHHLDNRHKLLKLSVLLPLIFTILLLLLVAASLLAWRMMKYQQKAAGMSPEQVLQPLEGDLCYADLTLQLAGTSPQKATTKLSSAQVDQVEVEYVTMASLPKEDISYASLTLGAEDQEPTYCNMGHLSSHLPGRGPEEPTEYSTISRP
Measurement notes: flow cytometry, stable Freestyle HEK cells
Observable: gMFI (gMFI)
Lab book: enter the figure in gMFI, no units written.

Ask: Quick check: gMFI of anti-CD300LB antibody CD-01 (antibody, V domains shown) VH: RVQLQQSGAELVRPGASVTLSCKASGFTFTDFEMHWVKKTPVHGLEWIGAIDPESGNTAYNQKFRGKATLTADKSSSTAYMELRYLTSEDSAVYYCTPLISGADYWGQGTTLTVSS VL: DVVMTQSPLSLPVSLGDQASISCRSSQSLVHSDGNTYLYWYLQKPGQSPKLLIYKVSNRFSGVPDRFSGSGSGTDFTFKISRVGAEDLGVYFCSQSTHVPWTFGGGTKLEII ?
Reply: -26

Ask: Param item: anti-CD300LB antibody CD-06 (antibody, V domains shown) VH: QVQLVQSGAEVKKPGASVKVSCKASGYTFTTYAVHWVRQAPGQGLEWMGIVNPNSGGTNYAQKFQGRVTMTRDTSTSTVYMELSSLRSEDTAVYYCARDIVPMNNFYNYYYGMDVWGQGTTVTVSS VL: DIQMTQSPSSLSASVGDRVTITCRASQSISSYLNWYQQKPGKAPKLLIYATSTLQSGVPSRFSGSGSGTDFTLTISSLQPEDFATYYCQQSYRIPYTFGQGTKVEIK
Reply: 886

Ask: Same question for anti-CD300LB antibody CD-07 (antibody, V domains shown) VH: QVQLVQSGAEVKKPGASVKVSCKASGYTFTNYRMHWVRQAPGQGLEWMGWINPNSGGTIYAQKFQGRVTMTRDTSTSTVYMELSSLRSEDTAVYYCARDLDYWGQGTLVTVSS VL: DIQMTQSPSSLSASVGDRVTITCQASQDISNYLNWYQQKPGKAPKLLIYGASSLQSGVPSRFSGSGSGTDFTLTISSLQPEDFATYYCQQSYSTPWTFGPGTKVEIK please.
Reply: 112

Ask: Next record, please: anti-CD300LB antibody CD-09 (antibody, V domains shown) VH: QVQLVQSGAEVKKPGASVKVSCKASGYTFTTYAVHWVRQAPGQGLEWMGIINPNSGGTNYAQKFQGRVTMTRDTSTSTVYMELSSLRSEDTAVYYCARDIVPMNNFYNYYYGMDVWGQGTTVTVSS VL: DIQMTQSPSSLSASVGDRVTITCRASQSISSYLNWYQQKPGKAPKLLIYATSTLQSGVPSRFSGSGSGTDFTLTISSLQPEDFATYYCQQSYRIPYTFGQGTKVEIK
Reply: 28
